Recorded values, source PubChem BioAssay (NCATS).

# measured target: Cytochrome P450 2C9 (Homo sapiens)
# assay name: Cytochrome P450 family 2 subfamily C member 9 (CYP2C9) small molecule antagonists: luciferase biochemical (cell-free) qHTS assay (AID 1645842); note: nearly all actives have a fitted effect of over 55% in size
# measurement context: P450-Glo CYP2C9 enzyme assay, luciferin luminescence; series mostly up to 57.4 µM
Records with an inconclusive call do not appear. Calls of active or inactive are those of the source. Calls come from the whole dose curve; as a rule, active = well fitted inhibition curve with a large enough effect in the repeat runs; inconclusive = weak or mixed curves; inactive = no such curve, though single readings can be large or run the other way.
Answer with one of the outcomes class 1 = active, class 0 = inactive

Examples from the recorded data:
>>> df
                                   compound    label
0  O=C1NC(=Nc2ccccc2F)S/C1=C\c1ccc(C(=O)O)cc1  class 1
1  CNC(=O)O[C@H]1COc2ccc(N3CCN(C4COC4)CC3)cc2[C@@H]1NC(=O)c1ccc(F)cc1  class 0
2  O=S(=O)(NC1CCNCC1)c1cc(S(=O)(=O)c2ccccc2)ccc1C(F)(F)F  class 0
3      CC(=O)NCCCCn1c2c(c3ccccc31)C(=O)NCC2  class 0
4  C[C@]12C=CC(=O)C=C1CC[C@@H]1[C@@H]2[C@@H](O)C[C@@]2(C)[C@H]1CC[C@]2(O)C(=O)COC(=O)CCC(=O)O  class 0
5  Cc1nnc(C(C)C)n1C1CC2CCC(C1)N2CC[C@H](NC(=O)C1CCC(F)(F)CC1)c1ccccc1 (some centres undefined)  class 0
6  CN1CCC(c2c[nH]c3ccc(NC(=O)c4ccc(F)cc4)cc23)CC1  class 0
7  COC(=O)C1=C(C#N)NC(C)=C(C(=O)OC(C)C)C1c1cccc([N+](=O)[O-])c1 (centres undefined)  class 1

Query: recorded result category for "CC[C@@H](c1ccc(F)c(F)c1)n1c(C(=O)OC)c(-c2ccno2)[nH]c1=S" in this test
class 1

Query: recorded result category for "Cc1cc(N2CCCCC2)nc2ccccc12" in this test
class 0

Query: recorded result category for "O=S(=O)(O)c1ccc2c(N=Nc3ccc(S(=O)(=O)O)c4ccccc34)c(O)c(S(=O)(=O)O)cc2c1" in this test
class 1

Query: recorded result category for "COc1cc(N2CCC(O)CC2)ccc1Nc1cc(Nc2ccccc2S(=O)(=O)C(C)C)c2cc[nH]c2n1" in this test
class 1

Query: recorded result category for "Cc1nn(C)c(COc2ccc(N3CCN(S(=O)(=O)N(C)C)CC3)cc2)c1-c1cccc2c(CCCOc3cccc4ccccc34)c(C(=O)O)n(CCN3CCOCC3)c12" in this test
class 1
